- assayDetails: recombinant UMI read abundance after kanamycin selection (control-corrected) (log10(CPM+1)); higher = more efficient recombination; extreme values may be limits of the assay; sequences stand for … in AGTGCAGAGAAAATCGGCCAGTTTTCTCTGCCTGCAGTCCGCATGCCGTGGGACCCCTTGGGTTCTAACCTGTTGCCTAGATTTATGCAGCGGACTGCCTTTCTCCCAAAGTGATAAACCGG…AGGTTGGTTTCACT; site = the 11-nt donor;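 also: IS621 bridge recombinase in Escherichia coli cells against a fixed T5 target plasmid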
Mark fulfilled for reported recombinant UMI read abundance (log10) of 1 or greater; mark not fulfilled for anything smaller.

sequenceString | className
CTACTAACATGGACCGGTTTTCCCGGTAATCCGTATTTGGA (site CTACTATCTTC) | fulfilled
TGAGAGACATGGACCGGTTTTCCCGGTAATCCGTATTTGCG (site TGAGAGACTCG) | fulfilled
GGTAATCCATGGACCGGTTTTCCCGGTAATCCGTATTTGAA (site GGTAATCCTTT) | not fulfilled

Query :: Quick check: does AGCCGTACATGGACCGGTTTTCCCGGTAATCCGTATTTGCT (site GGCCGTACTAG) have recombinant UMI read abundance (log10) greater than or equal to 1?
Result :: not fulfilled

Query :: Quick check: does CTTCTCACATGGACCGGTTTTCCCGGTAATCCGTATTTGTA (site CTTCTCACTTA) have recombinant UMI read abundance (log10) greater than or equal to 1?
Result :: not fulfilled
